Origin of the recorded values: ChEMBL document CHEMBL1201862

Tested on: SK-MEL-2
Experiment: NCI tumour cell line growth inhibition, 48 h
The campaign covered roughly 55,000 sequences. About 2,800 (5.1%) were called active. A selection follows. Measured potencies and affinities stand elsewhere.
# GI50 annotations
Use µM as the unit, but write only the number.

Worked examples follow.
1. mu-(1,7-nanodiamine-N,N')bis-(cis-aminedichloroplatimum (II)), CHEMBL2146215 | 38.9
2. [Bis(aminomethyl)dimethylsilane]dichloroplatinum (II), CHEMBL2146201 | 65.5
3. [Bis(aminomethyl)tetramethylenesilane]dichloropaltinum(II), CHEMBL2146205 | 30.9
4. [Bis(aminomethyl)pentamethylenesilane]dichloropaltinum(II), CHEMBL2146202 | 7.57
5. [Bis(aminomethyl)pentamethylenesilane]tetrachloropaltinum(IV), CHEMBL2146204 | 5.71
6. cis-Bis[[(trimethylsilyl)methyl]amino]tetrachloroplatinum(IV), CHEMBL2146191 | 2.88

Now for another entry.
For the substance [Bis(aminomethyl)dimethylsilane]tetrachloroplatinum(IV), CHEMBL2146190 , what GI50 is on record?
19.1
